Target: Mcl-1 protein (UniProtKB Q07820) (Homo sapiens (Human), UniProt Q07820)
Sequence (Q07820 whole entry): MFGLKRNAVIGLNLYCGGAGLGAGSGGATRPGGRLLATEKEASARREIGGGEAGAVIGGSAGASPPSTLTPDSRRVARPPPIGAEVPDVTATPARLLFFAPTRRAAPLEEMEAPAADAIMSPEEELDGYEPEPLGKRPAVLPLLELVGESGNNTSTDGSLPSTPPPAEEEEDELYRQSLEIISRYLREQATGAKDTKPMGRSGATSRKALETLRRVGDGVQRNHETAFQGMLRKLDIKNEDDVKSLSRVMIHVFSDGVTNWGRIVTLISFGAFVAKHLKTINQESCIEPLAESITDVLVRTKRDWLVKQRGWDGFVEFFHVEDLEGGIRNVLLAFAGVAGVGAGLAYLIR
Assay: Inhibition of Mcl-1 by the fluorescence polarisation assay (Example A, Method A)
Conditions: fluorescence polarization assay
readout-label: Ki (nM)

[
  {
    "compound": "O=C(O)[C@]1(Nc2cccc(Cl)c2)CC[C@]2(CC1)C(CCOc1ccccc1)=Cc1ccccc12 [Example 171]",
    "value-units": "nM",
    "Ki": 51.4
  },
  {
    "compound": "COc1ccc2c(c1)[C@]1(CC[C@@](Nc3cccc(Cl)c3)(C(=O)O)CC1)C(c1cccc(Oc3ccccc3)c1)C2 (single isomer, unassigned) [Example 379]",
    "value-units": "nM",
    "Ki": 3100
  },
  {
    "compound": "O=C(O)[C@]1(Nc2cccc(Cl)c2)CC[C@@]2(CC1)c1ccccc1CC2[C@H]1C[C@@H]1COc1ccnc2ccsc12 (single isomer, unassigned) [Example 105]",
    "value-units": "nM",
    "Ki": 3700
  }
]

(a) CN1C(=O)Cc2cc(OCCCC3Cc4ccccc4[C@]34CC[C@@](Nc3cccc(Cl)c3)(C(=O)O)CC4)ccc21 (stereo partly shown) [Example 480]
(b) O=C(O)[C@]1(Nc2cccc(Cl)c2)CC[C@]2(CC1)C(c1cccc(OCC3CC3)c1)=Cc1ccccc12 [Example 339]
(c) CCC1=C(C)[C@]2(CC[C@](Nc3cccc(Cl)c3)(C(=O)O)CC2)c2ccccc21 [Example 205]
(d) O=C(O)[C@]1(Nc2cccc(Cl)c2)CC[C@]2(CC1)C(c1coc3ccccc13)=Cc1ccccc12 [Example 245]
stdin: Sort (4 compounds) by Ki: min first. Please reply with the labels ordered as requested. Many thanks.
stdout: b, a, c, d
(b: 154 nM, a: 431 nM, c: 1710 nM, d: 4300 nM)

(1) O=C(O)[C@]1(Nc2cccc(Cl)c2)CC[C@@]2(CC1)c1ccccc1CC2CCCc1ccc(Cl)cc1 (stereo partly shown) [Example 162]
(2) Cc1cc(C2=Cc3ccccc3C23CCC(Nc2cccc(Br)c2)(C(=O)O)CC3)ccc1Cl (single isomer, unassigned) [Example 235]
(3) CC(C)C(COc1cccnc1)CC1Cc2ccccc2[C@]12CC[C@@](Nc1cccc(Cl)c1)(C(=O)O)CC2 (single isomer, unassigned) [Example 526]
(4) O=C(O)[C@]1(Nc2cccc(Cl)c2)CC[C@@]2(CC1)c1ccccc1CC2CCCOc1ccnc2c1CCCC2 (stereo partly shown) [Example 451]
stdin: Rank by Ki (largest to smallest). Please reply with the labels ordered as requested. Many thanks.
stdout: 2, 3, 1, 4

(A) O=C(O)[C@]1(Nc2cccc(Cl)c2)CC[C@]2(CC1)C(COCCc1cccc(F)c1)=Cc1ccccc12 [Example 412]
(B) C[C@@H](COc1ccnc(C(F)F)c1)C[C@H]1Cc2ccccc2[C@]12CC[C@@](Nc1cccc(Cl)c1)(C(=O)O)CC2 [Example 581]
stdin: Which gives the smaller Ki number: A or B ? State the label of the item chosen.
stdout: B
